Target: Pim-3 (h) (Homo sapiens, UniProt Q86V86)
Construct: purchased Millipore (printed 'Millopore'; assay run as a service at the vendor)
Assay: PIM-3 assay run at Millipore
Format: biochemical
Settings: Table 8; read-out: PIM3 IC50
Metric name: IC50

Query IC50 on Pim-3 (h) (Homo sapiens, UniProt Q86V86) for C/C(=C1\C(=O)Nc2ccc(Cl)cc21)c1ccc(-c2ccc(C(=O)N3CCCN(C)CC3)cc2)o1 [drawing 336]
< 1000 nM

Now look at this one.
Please provide the recorded IC50 for CN1CCCN(C(=O)c2ccc(-c3ccc(/C=C4/C(=O)Nc5ccc(Cl)cc54)o3)cc2)CC1 [drawing 337] , tested on Pim-3 (h) (Homo sapiens, UniProt Q86V86).
< 1000 nM

###

Target: recombinant PIM-1 (Homo sapiens, UniProt P11309)
Sequence (P11309 whole entry): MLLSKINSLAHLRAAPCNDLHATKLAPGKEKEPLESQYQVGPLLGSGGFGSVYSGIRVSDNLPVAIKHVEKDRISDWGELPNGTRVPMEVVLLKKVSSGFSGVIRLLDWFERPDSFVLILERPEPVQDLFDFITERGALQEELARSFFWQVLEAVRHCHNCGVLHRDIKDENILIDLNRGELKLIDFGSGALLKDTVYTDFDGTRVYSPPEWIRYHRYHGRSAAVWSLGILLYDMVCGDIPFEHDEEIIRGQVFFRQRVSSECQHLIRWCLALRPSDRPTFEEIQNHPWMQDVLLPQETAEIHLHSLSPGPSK
Assay: PIM-1 kinase assay (radiometric, 15 uM ATP, DMSO 4%)
Format: biochemical
Settings: Table 1; % inhibition at the high dose (2 micromolar) in a single screening assay; 15 μM ATP
Each entry below carries its reported inhibition at 2 µM.
Give the value in % but do not write % after it.

Name the recorded inhibition at 2 µM for `CN(C)C(=O)c1cccc(-c2ccc(/C=C3/C(=O)Nc4ccc(Cl)cc43)o2)c1` .
21.2

###

Target: recombinant human PIM2 (Homo sapiens)
Sequence (Q9P1W9 whole entry): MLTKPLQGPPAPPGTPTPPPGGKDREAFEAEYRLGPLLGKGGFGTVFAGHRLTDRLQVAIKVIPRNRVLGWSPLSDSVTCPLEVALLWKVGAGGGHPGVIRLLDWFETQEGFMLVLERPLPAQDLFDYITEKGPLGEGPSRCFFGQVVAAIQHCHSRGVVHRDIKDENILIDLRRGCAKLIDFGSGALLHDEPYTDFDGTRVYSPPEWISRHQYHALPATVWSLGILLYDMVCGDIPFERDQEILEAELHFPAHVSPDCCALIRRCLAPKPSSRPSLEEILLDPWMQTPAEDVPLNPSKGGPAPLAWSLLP
Assay: PIM-2 assay (radiometric)
Format: biochemical
Settings: Table 8; read-out: PIM2 IC50
pIC50: −log10 of the molar value.
Metric name: pIC50

Give the measured pIC50 of C/C(=C1\C(=O)Nc2ccc(Cl)cc21)c1ccc(-c2ccc(C(=O)N3CCCN(C)CC3)cc2)o1 [drawing 336] .
> 6.30

// next entry
Consider the compound CN1CCCN(C(=O)c2ccc(-c3ccc(/C=C4/C(=O)Nc5ccc(Cl)cc54)o3)cc2)CC1 [drawing 337] and give its measured pIC50.
> 6.30

###

Test system: K-562
Test: Alamar Blue cell proliferation assay, K-562
Format: cell-based
Details: Homo sapiens, K562, Table 4, read-out: AB: K-562
Metric name: pIC50
// pIC50 here means minus log10 of the molar concentration (mol/L)

Study these solved cases before continuing.
Give recorded pIC50 with K-562 for the following compound: O=C1Nc2ccc(Cl)cc2/C1=C\c1ccc(-c2cccc(C(=O)NCCCn3ccnc3)c2)o1 [drawing 233]
6.54

Form entry - test system: K-562; read-out: pIC50; compound: Nc1cccc(-c2ccc(/C=C3/C(=O)Nc4ccccc43)o2)c1 [drawing 234]
5.29

Could you share what pIC50 was measured for O=C1Nc2ccc(Cl)cc2/C1=C\c1ccc(-c2cccc(C(=O)NCCN(CCO)CCO)c2)o1 [drawing 238] , tested on K-562?
5.79

Turning now to a further compound:
Hi! What's the reported pIC50 for `C/C(=C1\C(=O)Nc2ccc(Cl)cc21)c1ccc(-c2cccc(C(=O)N3CCCN(C)CC3)c2)o1` on K-562?
6.11

###

Target: recombinant PIM-1 (Homo sapiens)
Experiment: PIM-1 kinase assay (radiometric, 15 uM ATP, DMSO 4%)
Assay type: biochemical
Conditions: Table 1; given for compounds with IC50 at or below 2 micromolar; 15 uM ATP; read-out: PIM-1 IC50
Experimental: The following procedure was used to assay the PIM-1 kinase activity of compounds of the invention. […] (specific activity approx. 500 cpm/pmol), DMSO 4% and test inhibitor compound at the required concentration. […] The plate was washed 4 times with 0.075% phosphoric acid (100 ul per well) and then, after the addition of scintillation fluid (20 ul per well), the counts were measured by a scintillation counter.
# IC50 annotations

Recorded results for 5 molecules are shown here.
For recombinant PIM-1 (Homo sapiens), provide IC50 of CCN1CCCC1CNC(=O)c1ccc(-c2ccc(/C=C3/C(=O)Nc4ccccc43)o2)cc1 (stereo not drawn) [Compound 32] please.
< 1000 nM

Item CCN1CCCC1CNC(=O)c1ccc(-c2ccc(/C=C3/C(=O)Nc4ccc(F)cc43)o2)cc1 (stereo not drawn) [Compound 84] with recombinant PIM-1 (Homo sapiens) - IC50?
< 1000 nM

Query the reported IC50 for recombinant PIM-1 (Homo sapiens); item: CN(C)C1CCN(C(=O)c2ccc(-c3ccc(/C=C4/C(=O)Nc5ccc(F)cc54)o3)cc2)CC1 [Compound 87]
< 2000 nM

Notebook entry, recombinant PIM-1 (Homo sapiens) assay: IC50 of C/C(=C1\C(=O)Nc2ccccc21)c1ccc(-c2cccc(C(=O)NCCN3CCCC3)c2)o1 [Compound 156] = ?
< 2000 nM

For recombinant PIM-1 (Homo sapiens), provide IC50 of O=C(CCN1CCCC1)Nc1cccc(-c2ccc(/C=C3/C(=O)Nc4ccccc43)o2)c1 [Compound 184] please.
< 1000 nM

From here, focus on the item given below.
# returns recorded IC50 (system: recombinant PIM-1 (Homo sapiens)) for Cc1cc(-c2cccc(C(=O)NCc3cncn3C)c2)oc1/C=C1/C(=O)Nc2ccccc21 [Compound 158]
< 2000 nM
